apparent KD of MS2 coat protein listing for selected sequences.
# Test system: MS2 coat protein
# experiment-summary: apparent KD of MS2 coat protein; higher = weaker reporter binding
# recorded-conditions: Eterna round: R107; input ligand: arginine 13.2 mM
API: value field is a number in nM; no unit string.

Worked set:
residues	apparent KD of MS2 coat protein (nM)
UGGGUCGGAUGAGGAAAUUGUCCGACGUAUCGAGGACCGGUACGGCCGCCACUCGGUUGUACAUGAGGAUCACCCAUGUCAGGGU [#1 Same State - Tryptophan A Attempt #15 (HarryS)]	194
AGAGUUAGACAAAAGUCUAGCUCACCAGAAGGAGCGUCCGAAAGGACAGGUAGGUCGCUGGUACAUGAGCAUCAGCCAUGUUCCU [ArgAS 15 #OpenEnded #AlternativeMS2]	18.1
AAUAAUAGGUGAUCUUAAGUCGUACCGUAACGAGGACCGGUACGGCCGCCACUCGAACAUGAGGAUCACCCAUGUAUGUAUGAUA [whbob_SS_trypto A_f5]	44.7
GCUGUACCAUGAAGGAGCGUCGUUGAUUGAGAAUACACAUGAGGAUCACCCAUGUUUUUAUGACAGGUAGGUCGCAUGGUACAGC [SSAB #16]	13.8

Shift focus to the following entry.
Summary: UUGGUAGGACAGCUCAUAUAAGCAUGUGAUACCAGCUAGAAAACUAGCCCUUGGCAGCACUUUACAUGAGGAUCACCCAUGUCCC [EThA NP+V+V2 #2 +-Same Structure] , MS2 coat protein, apparent KD of MS2 coat protein = 68.8

====

# System: K4 kissing-loop RNA reporter
# experiment-summary: apparent KD of K4 kissing-loop reporter; higher = weaker reporter binding
# recorded-conditions: Eterna round: R107; input ligand: tryptophan 2.4 mM
Range-based classes on measured apparent KD of K4 kissing-loop reporter: I (below 100 nM), II (100 nM to below 200 nM), III (200 nM or more)

residues	label-class
AAGUGUGUGGCGGCCGCCACUAGAAUCCAGUGAUGUUGGAGUAAUCAAAUAAAUAAUAAUAAACAUAGGACCGGGCCAUAUAGAA [Same State - Tryptophan B (Freestyle 2)]	II

Q: Lab log: GUGGAAUUAUGAAAGUGGUUUUAUAAGGAAGGAGCGGCCGAAAGGCCAGGUAGGUCGCCUAUUGACAGUGAUGUUGUUAUAUGGA [#13] — assign apparent KD of K4 kissing-loop reporter category
Result: I

Q: Lab log: CGUUUAUAGGAGGAUACCAGUACGGAUAAAGUACGUUAAUAGUAGAGUGAUGUUCUAAAGUACCCUUGGCAGCUUAGAGUGAGUG [ExTheophylB.N] — assign apparent KD of K4 kissing-loop reporter category
Result: I

Q: Lab log: GUAUCGCUAGGAGGAUAUUUCAAUUUGACUCUUUGAGUUUUUACGGAGUGAUGUUCCGUUUUACGGAAAGAAGGCCUAGUGAUAC [FMN B 15] — assign apparent KD of K4 kissing-loop reporter category
Result: II

====

# Test system: K4 kissing-loop RNA reporter;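 also: bound reporter read as fluorescence of individual clusters on recovered sequencing chips by microscopy, with normalized cluster intensities fitted with a binding model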
# experiment-summary: apparent KD of K4 kissing-loop reporter; higher = weaker reporter binding
# recorded-conditions: Eterna round: R107; input ligand: arginine 13.2 mM
property-name: apparent KD of K4 kissing-loop reporter

residues	apparent KD of K4 kissing-loop reporter
AGGUACUACGGAAGGAGCGCACCAGUGAUGUUGGUGUGUGACCGUGACAUGGCAGUCAAGGUGCAGGUAGGUCGCCGUGGCCUUU [Anatartibe]	0.113 µM
AGUUCAGAGUGACUCGAUAAGAGUCACAAACGAGGACCGGUACGGCCGCCACUCGAAAUAACGAGAGUGAUGUUCUCGCUGGGCA [FiskerMod 2 - Jieux - Same State Tryptophan A]	0.674 µM
CCUAUCUCAUACGAUACCAGUCUACGAUAUUUUAUCGUUGCCAUCACCGAGUGAUGUUCGGACCCUUGGCAGCGUAUGGGAUAGG [Ex Theophylline B K4 5]	0.277 µM
UUUUAAAUGUCUGAUACCAGAGAAAAUAUAUGUAGUGAUGUUACAUACAAAUUUAAUAAGCUCCCUUGGCAGCAGUAUGAAUUUU [AstrosExc-TheB#15]	0.0667 µM

Measured apparent KD of K4 kissing-loop reporter of UUCCUAUUAUUAACACUAUAUACAACUGAAGGAGCGACAAUAAAGUCAGGUAGGUCGCAGAAUUAAUGAGUGAUGUUCAUUUUUA [JR_ExcArginiA_Sub013] : 0.141 µM

Measured apparent KD of K4 kissing-loop reporter of AAGAAUGCAGGAAGGAGCGGCGGACGGAGUGAUGUUCCGGCUAGUGAUGUUAGCAAACACCGCCAGGUAGGUCGCCUGCUGCCCU [Same State Arginine B GF 6] : 0.127 µM

====

# Tested on: MS2 coat protein
# experiment-summary: apparent KD of MS2 coat protein; higher = weaker reporter binding
# recorded-conditions: Eterna round: R107; input ligand: theophylline 20 uM
property-name: apparent KD of MS2 coat protein (nM)
API: value field is a number in nM; no unit string.

Worked set:
residues	target-desc	unit-text	apparent KD of MS2 coat protein
GCUAGGUCAUCGGCCGCCACUAACGAUGGCUCCGACAUGAGGAUCACCCAUGUGCCACUUGCGCAUAGGACCGGGAUGACCUAGC [SSTB NP+V+V2 #1]	MS2 coat protein	nM	24.3
AAACGUUGCUCAGAUACCAGACAUGAGGAUCACCCAUGUACCGAGGUACCCGAAAGGAAUGUCCCUUGGCAGCUGAGCAACGAAA [MAT - Exclusion Theophlline B - Mod of Eli - D23]	MS2 coat protein	nM	19
GGAUGGAACUCGGCCGCCACUGGUGAUCCUAAUGUACAUGAGGAUCACCCAUGUACAUGAGAAGAUAGGACCGGGAGAUAAGGGA [Tryptophan B V4 (+4G)]	MS2 coat protein	nM	24.3
UGGGAAGGAGGAAGGAGCGCCAUAAGGGUGACAGUCUGGGUACAUGAGGAUCACCCAUGUAGGCAGGUAGGUCGCCUCGCUCUCA [XArg-B15]	MS2 coat protein	nM	12.8

Measured apparent KD of MS2 coat protein of AGCCACUCGAGUGAUCCUCACGAGUGGCUACGAGGACCGGUACGGCCGCCACUCGAAUUAACAUGAGGAUCACCCAUGUAAUCAC [Brourdmod05] : 135

Measured apparent KD of MS2 coat protein of CAUGGGCUAAGACAUUAUUCGUAUUUUGAUACCAGAAAAUUGGCGUUCCCUUGGCAGCAAUAUACAUGAGGAUCACCCAUGUCCC [theeternabot_exclusion_MS2_Theo_A_23] : 70.9

Measured apparent KD of MS2 coat protein of ACAUGAGGAUCACCCAUGUUGAGCACAGAAGGAGCGUGAUUAAGCACAGGUAGGUCGCUGUACUUAUCGAGCGUUAGCUCGAUAC [JR_Nu_SSArginiA_Sub030] : 32.6

Measured apparent KD of MS2 coat protein of ACAAGAGGGAUGGAUACCAGCGACAUGAGGAUCACCCAUGUAUGAGGAUCAGCCAUGUUAUGCCCUUGGCAGCCACGAAGAUCAG [XXXMULLIN] : 32.8

Measured apparent KD of MS2 coat protein of UGUAUGGACUGAAGGAGCGCCUCAAAAUAACAUGAGGAUCACCCAUGUAAGGCGAAAGCCGGGCAGGUAGGUCGCAGUCCAUACU [ArgBX 3 #StaticStem #MS2Late] : 16.1

====

# System: MS2 coat protein
# experiment-summary: apparent KD of MS2 coat protein; designed switch direction (-1 OFF switch, 1 ON switch): -1; higher = weaker reporter binding
# recorded-conditions: input ligand: microRNA oligo, concentration not stated
property-name: apparent KD of MS2 coat protein (nM)
API: value field is a number in nM; no unit string.

Worked set:
residues	target-desc	unit-text	apparent KD of MS2 coat protein
CUUUUGUGAGGAUAUUUGUAGUAAAUAAAUAAAAUUACUACUGAGAAGGCACAUGAGGAUCACCCAUGUUCCUC [salish99_ex4_r3_042] (Eterna round: R96, puzzle: Exclusion 4)	MS2 coat protein	nM	24.4
GUCAGCUCGUGAGGAUAUACAUGAGGAUCACCCAUGUGAUCAAUAGCAGCUUCGGCUGCAUUAAUGUAGAAGGUACGAGCUGAC [ENG2/5-C1] (Eterna round: R96, puzzle: Exclusion NG 2)	MS2 coat protein	nM	111
UGCCGUUUAGGAUAUACAUGAGGAUCACCCAUGUGACACACAUAUUUUACAAAACCAUGUAGAAGGAAACGGCA [E3-1.0] (Eterna round: R96, puzzle: Exclusion 3)	MS2 coat protein	nM	95.4
CACCUGAAGACAGGAUAUCAUACAUGAGGAUCACCCAUGUAAUAAAUGAGAAUUUCGAAUGUAAUUGAGAAGGGUCGAUAAGGC [Ostricism 91 - Jieux - Exclusion NG 2] (Eterna round: R96, puzzle: Exclusion NG 2)	MS2 coat protein	nM	30.6
AAAUGGAACAGAGGAUAUAGGGACAUGAGGAUCACCCAUGUUUUUUUUGGUUGGGUGGGUUUGGGCUAGAAGGCUGGGAAGAAA [Kawasakiqro] (Eterna round: R96, puzzle: Exclusion NG 2)	MS2 coat protein	nM	26.8
AAUUAUUGAUGAGGAUAUUGUGGUGAAACACGACAAGAAGGCAUUUUUCACAUGAGGAUCACCCAUGUGAGCCUUGUGCAUAUA [Ex NG1 #62] (Eterna round: R96, puzzle: Exclusion NG 1)	MS2 coat protein	nM	11.5

Measured apparent KD of MS2 coat protein of UUUUUAUAUGAAGGAUAUACUUAACAUGAGGAUCACCCAUGUGGUGUUGUGAGUGAGUGAGUUUAGUAGAAGGUCAAUUAUUAU [JMF's solution 15] (Eterna round: R96, puzzle: Exclusion NG 2) : 390

Measured apparent KD of MS2 coat protein of CAGGACAGAGGAUAUACAUAGAUACAGAUUCAUGUAGAACUACAUGAGGAUCACCCAUGUAGAAGGCUGACCUG [Fiskers Ex 2 - 4] (Eterna round: R96, puzzle: Exclusion 2) : 23.5

Measured apparent KD of MS2 coat protein of GGUCAGAUGGUAGGAUAUUCAUAUCGAGUGACCCUUUCAUAACAUGAGGAUCACCCAUGUCGGUGGGAGAAGGGCCGUACGGCG [salish99_ExNG02_R04_014] (Eterna round: R96, puzzle: Exclusion NG 2) : 29.3

Measured apparent KD of MS2 coat protein of AUAAAUCAUGUAGGAUAUGUGUGGCGAAGCUAUACAGAAGGACAUGAGGAUCACCCAUGUUCUUCCGUCUGCGUACAGACGGAA [11th something] (Eterna round: R96, puzzle: Exclusion NG 1) : 19.1

Measured apparent KD of MS2 coat protein of CUGCUCCGUGUAGGAUAUGCAUAUUCCCAUUAUGCAGAAGGACAUGAGGAUCACCCAUGUAUGUUAUUAUCAUGUGUUACAUGC [Design 9] (Eterna round: R96, puzzle: Exclusion NG 1) : 24.9

Measured apparent KD of MS2 coat protein of AAAUGAUGAGGAUAUACAUGAGGAUCACCCAUGUGUAAAAAUAAAUACACAAAAGAAAGUAGAAGGCAUCAAAA [Ex 3 May 12] (Eterna round: R96, puzzle: Exclusion 3) : 25.1

Measured apparent KD of MS2 coat protein of CCCAGUUAGGAAGGAUAUUGUACAUGAGGAUCACCCAUGUAAUAAAUGAGGAUCACGGAUGUAUACAAGAAGGUCCGGAUAGGC [Ostracism 9 - Jieux - Exclusion NG 2] (Eterna round: R96, puzzle: Exclusion NG 2) : 59.3

Ref: the supplement of paper PMC9170038
